tested on: OVCAR-5; test: NCI tumour cell line growth inhibition, 48 h
Activity calls are given as the source filed them. No stated cut-off is given here; in the data, active = GI50 up to about 1.1 µM and inactive = higher.
Outcomes: active, inactive

compound	assigned-label
C[N+]1=c2c3cccc4cccc(c(=O)n2CC1)c43	inactive
COC1C(O)CC(OC2CC(Oc3cc4cc5c(c(O)c4c(O)c3C)C(=O)[C@@H](OC3CC(OC4CC(OC6CC(C)(O)C(OC(C)=O)C(C)O6)C(O)C(C)O4)C(O)C(C)O3)[C@H]([C@H](OC)C(=O)[C@@H](O)[C@@H](C)O)C5)OC(C)C2OC(C)=O)OC1C (some centres undefined)	active
Cc1cccc(N2C(=O)C3ON(C(C(N)=O)c4ccccc4)C(c4c5ccccc5c(Cl)c5ccccc45)C3C2=O)c1C (centres undefined)	inactive
COc1cc(Nc2nc3ccccc3n3cccc23)cc(OC)c1OC	inactive
COc1ccc(C(=O)Nc2ccn(CCOC(=O)c3ccc(OC)cc3)c(=O)n2)cc1	inactive
COc1ccc(C2C3COc4ccccc4C3=NN2c2ccccc2)cc1 (centres undefined)	inactive
Nc1nnc2nc(CC(=O)/C=C/c3ccccc3)c(=O)[nH]n12	inactive
Nc1ccc(COC(O)CN2CCCCC2)cc1[N+](=O)[O-] (centres undefined)	inactive
CN(C)C(=O)Nc1c([N+](=O)[O-])cc(C(F)(F)F)cc1[N+](=O)[O-]	inactive
